# tested_system: T1, SNTA1, Q13424
# T1 sequence (Q13424 82-180, limits assumed, looked up): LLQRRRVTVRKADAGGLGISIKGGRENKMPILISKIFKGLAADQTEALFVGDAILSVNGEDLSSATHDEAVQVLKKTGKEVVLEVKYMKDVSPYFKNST
# test_method_notes: holdup assay
# Parameters: key: below the threshold = too weak to quantify, mostly under pKd 3.1 to 4
# experimental_context: plain residues with an end cap or a label only (N-terminal biotin on a linker: ado-ado)
measured_attribute: pKd
Lab note: jot the number down without any unit.

Answered cases to consult:
APIAGFSSFV [SDK2, Q58EX2] :: 4.09
ARSAAASNYV [CLDN4, O14493] :: 3.63
VKRNSKETVV [MARCHF3, Q86UD3] :: 5.37

Next up:
Fill in: pKd of SVTSERETNI [SLC16A7, O60669] is ___
5.09
